The following molecules are listed with their measured TGI values.
Tested on: MALME-3M melanoma
Assay: NCI tumour cell line growth inhibition, 48 h

molecule: CC(C)(C)c1cc([Si](C)(C)C)c(C#N)c([Si](C)(C)C)c1
subject-of-test: MALME-3M melanoma
TGI: > 100 µM
--
molecule: CCCCCCCCC/C=C1/CC(CO)(COC(=O)C2CCCCC2)OC1=O (configuration not stated)
subject-of-test: MALME-3M melanoma
TGI: > 100 µM
--
molecule: NC(=O)C1CCCN1Cc1ccc2c(c1)OCO2 (configuration not stated)
subject-of-test: MALME-3M melanoma
TGI: > 100 µM
--
molecule: CCN(CC)CCNC(=O)C1COc2ccc(-c3cc(=O)c4ccccc4o3)cc2O1 (configuration not stated)
subject-of-test: MALME-3M melanoma
TGI: 30.3 µM
--
molecule: COc1c(C(=O)CC2c3c(cc4oc(C)cc(=O)c4c3OC)OC(=N)C2c2nc3ccccc3[nH]2)c(O)c(OC)c2occc12 (configuration not stated)
subject-of-test: MALME-3M melanoma
TGI: > 100 µM
--
molecule: CC1=NN(c2ccccc2)C(=O)C1N=Nc1ccc(Br)cc1C (configuration not stated)
subject-of-test: MALME-3M melanoma
TGI: > 100 µM
--
molecule: OC[C@H](O)[C@@H](OCc1ccccc1)[C@H](NCc1ccccc1)c1cccs1
subject-of-test: MALME-3M melanoma
TGI: > 100 µM
--
molecule: Cc1[nH]c(-c2ccccc2)c(O)c1C(=O)OC1CC(C)CCC1C(C)C (configuration not stated)
subject-of-test: MALME-3M melanoma
TGI: 32.9 µM
--
molecule: CC(C)(C)c1ccc(OCCOc2ccc(C(C)(C)C)cc2NC=O)c(NC=O)c1
subject-of-test: MALME-3M melanoma
TGI: 24.8 µM
--
molecule: O=S(=O)(O)c1ccc([Se][Se]c2ccc(S(=O)(=O)O)cc2)cc1
subject-of-test: MALME-3M melanoma
TGI: > 100 µM
--
molecule: C#CCN1C(=O)CN2C(Cl)(Cl)C2(c2ccccc2)c2cc(Cl)ccc21 (configuration not stated)
subject-of-test: MALME-3M melanoma
TGI: > 100 µM
--
molecule: O=C(Cn1cc(I)c(C(=O)NCC(O)CO)n1)NCC(O)CO (configuration not stated)
subject-of-test: MALME-3M melanoma
TGI: > 100 µM
--
molecule: c1ccc2cc(Cn3c(-c4cccc5ccccc45)[n+](Cc4ccc5ccccc5c4)c4c5ccccc5c5ccccc5c43)ccc2c1
subject-of-test: MALME-3M melanoma
TGI: 1.45 µM
--
molecule: C[C@H]1O[C@@H](O[C@H]2[C@@H](O)C[C@H](O[C@H]3[C@@H](O)C[C@H](O[C@H]4CC[C@]5(C)C6CC[C@]7(C)[C@@H](C8=CC(=O)OC8)CC[C@]7(O)C6CC[C@@H]5C4)O[C@@H]3C)O[C@@H]2C)C[C@H](O)[C@@H]1O (some centres not stated)
subject-of-test: MALME-3M melanoma
TGI: 0.0783 µM
--
molecule: Nc1ccc2ncc(NCc3ccc(F)cc3)nc2c1
subject-of-test: MALME-3M melanoma
TGI: > 100 µM
--
molecule: C=C1C(O)C2OC(=O)C(=C)C2C(OC(=O)/C(C)=C/C)CC2(C)OC2C2OC12 (configuration not stated)
subject-of-test: MALME-3M melanoma
TGI: 29 µM
--
molecule: C#CCn1c(=O)c2cc(OC)c(OC)cc2n(CC#C)c1=O
subject-of-test: MALME-3M melanoma
TGI: > 10 µM
--
molecule: COc1ccc(COc2ccc(Cc3cnc(N)nc3N)cc2OC)cc1
subject-of-test: MALME-3M melanoma
TGI: > 25 µM
--
molecule: O=S1c2ccccc2N=C(c2cccs2)CC1c1ccccc1O (configuration not stated)
subject-of-test: MALME-3M melanoma
TGI: > 100 µM
--
molecule: N#Cc1cc([N+](=O)[O-])ccc1NC(=O)C(=O)Nn1c(=S)[nH]c2ccccc2c1=O
subject-of-test: MALME-3M melanoma
TGI: > 100 µM
--
molecule: O=C(NC1CCCCC1)N1CCNC1=S
subject-of-test: MALME-3M melanoma
TGI: > 100 µM
--
molecule: COc1ccc(NC(=O)CC2SC(=Nc3ccc(Cl)cc3C)NC2=O)c([N+](=O)[O-])c1 (configuration not stated)
subject-of-test: MALME-3M melanoma
TGI: > 100 µM
--
molecule: Nc1ncnc2c1ncn2Cc1ccc(CCl)cc1
subject-of-test: MALME-3M melanoma
TGI: 43.4 µM
--
molecule: OCC1OC(N2CCN(C3OC(CO)C(O)C(O)C3O)CC2)C(O)C(O)C1O (configuration not stated)
subject-of-test: MALME-3M melanoma
TGI: > 100 µM
--
molecule: Cc1cc(C2CC(O)C(CO)O2)c(Br)cc1Br (configuration not stated)
subject-of-test: MALME-3M melanoma
TGI: > 100 µM
--
molecule: CCOC(=O)/C(C(N)=O)=C(/O)c1cnccn1
subject-of-test: MALME-3M melanoma
TGI: > 100 µM
--
molecule: O=C(N/N=C/c1ccc(O)cc1)NNCCO
subject-of-test: MALME-3M melanoma
TGI: > 100 µM
